# target.or.test.system: UniProt:P51449
# assay.method.text: biochemical
# Description: Binding affinity to N-terminal his6-tagged human recombinant RORgamma LBD (261 to 518 residues) expressed in Sf9 insect cells assessed as dissociation constant incubated for 30 mins by fluorescence polarization assay
assay.endpoint: pKd
Here pKd is given on a logarithmic scale as minus log10 of the concentration in mol/L.

Output pKd of O=C(O)c1ccc(-c2nn(C(=O)c3c(Cl)cccc3C(F)(F)F)c3cc(C(=O)NCCOCCOCCNC(=S)Nc4ccc5c(c4)C(=O)OC54c5ccc(O)cc5Oc5cc(O)ccc54)ccc23)cc1
7.29

----------
Item-by-item account of Ki
# target.or.test.system: Nuclear receptor ROR-gamma (Homo sapiens, UniProt P51449)
The response must be a number in µM with no trailing unit.

>  <sample.smiles>
O=C(O)c1ccc(-n2cc(C(=O)c3c(Cl)cccc3Cl)c3ccccc32)s1

>  <units.label>
µM

>  <Ki>
0.51

$$$$

Output Ki of O=C(O)c1ccc(-c2nn(C(=O)c3ccccc3)c3ccccc23)cc1
1.11

Output Ki of O=C(O)c1ccc(-n2cc(C(=O)c3cccc(Cl)c3)c3ccccc32)s1
15.2

Output Ki of O=C(O)c1ccc(-n2cc(C(=O)c3c(Cl)cccc3Cl)c3ccccc32)cc1
0.005

Output Ki of O=C(O)c1ccc(-n2cc(C(=O)c3ccc(Cl)cc3)c3ccccc32)s1
21.3

Output Ki of O=C(O)c1ccc(-n2cc(C(=O)c3ccccc3)c3ccccc32)s1
102

Output Ki of Cc1ccccc1C(=O)c1cn(-c2ccc(C(=O)O)s2)c2ccccc12
17.6

Output Ki of O=C(O)c1ccc(-n2cc(C(=O)c3c(Cl)cccc3C(F)(F)F)c3ccccc32)s1
0.91

----------
# target.or.test.system: Nuclear receptor ROR-gamma (Homo sapiens)
# assay.method.text: biochemical
# Description: Binding affinity to N-terminal his6-tagged human recombinant RORgamma LBD (261 to 518 residues) expressed in Sf9 insect cells assessed as dissociation constant by SPR analysis
assay.endpoint: pKd
Here pKd is given on a logarithmic scale as minus log10 of the concentration in mol/L.

Output pKd of O=C(O)c1ccc(-c2nn(C(=O)c3c(Cl)cccc3C(F)(F)F)c3cc(C(=O)NCCOCCOCCNC(=S)Nc4ccc5c(c4)C(=O)OC54c5ccc(O)cc5Oc5cc(O)ccc54)ccc23)cc1
6.55

----------
# target.or.test.system: Nuclear receptor ROR-gamma (Homo sapiens)
# Sequence (P51449 whole entry): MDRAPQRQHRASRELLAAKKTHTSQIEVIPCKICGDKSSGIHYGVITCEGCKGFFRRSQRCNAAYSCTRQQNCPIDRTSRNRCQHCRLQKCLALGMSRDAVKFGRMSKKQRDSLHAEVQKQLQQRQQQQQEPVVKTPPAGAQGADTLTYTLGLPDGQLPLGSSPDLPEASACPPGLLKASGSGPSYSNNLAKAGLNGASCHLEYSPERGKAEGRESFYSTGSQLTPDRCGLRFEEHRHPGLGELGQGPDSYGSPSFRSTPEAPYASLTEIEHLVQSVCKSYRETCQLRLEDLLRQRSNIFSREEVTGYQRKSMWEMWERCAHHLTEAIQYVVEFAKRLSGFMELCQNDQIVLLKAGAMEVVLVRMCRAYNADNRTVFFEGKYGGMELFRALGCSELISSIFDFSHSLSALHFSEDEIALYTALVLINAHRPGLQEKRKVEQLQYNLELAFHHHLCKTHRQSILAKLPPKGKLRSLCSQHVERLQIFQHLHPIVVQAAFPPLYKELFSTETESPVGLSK
assay.endpoint: IC50 (µM)
The response must be a number in µM with no trailing unit.

Below are worked cases with known answers.
>  <sample.smiles>
Cc1ccccc1C(=O)c1cn(-c2ccc(C(=O)O)s2)c2ccccc12

>  <target.or.test.system>
Nuclear receptor ROR-gamma (Homo sapiens)

>  <IC50, µM>
33

$$$$
>  <sample.smiles>
Cc1cc(-n2cc(C(=O)c3c(Cl)cccc3Cl)c3ccccc32)sc1C(=O)O

>  <target.or.test.system>
Nuclear receptor ROR-gamma (Homo sapiens)

>  <IC50, µM>
3.1

$$$$
>  <sample.smiles>
O=C(O)c1ccc(-n2cc(C(=O)c3ccccc3Cl)c3ccccc32)s1

>  <target.or.test.system>
Nuclear receptor ROR-gamma (Homo sapiens)

>  <IC50, µM>
13.5

$$$$
>  <sample.smiles>
O=C(O)c1ccc(-n2cc(C(=O)c3cccc(Cl)c3)c3ccccc32)s1

>  <target.or.test.system>
Nuclear receptor ROR-gamma (Homo sapiens)

>  <IC50, µM>
28.5

$$$$
>  <sample.smiles>
O=C(O)c1ccc(-n2cc(C(=O)c3c(Cl)cccc3C(F)(F)F)c3ccccc32)s1

>  <target.or.test.system>
Nuclear receptor ROR-gamma (Homo sapiens)

>  <IC50, µM>
1.7

$$$$
>  <sample.smiles>
O=C(O)c1ccc(-n2cc(C(=O)c3c(Cl)cccc3Cl)c3ccccc32)s1

>  <target.or.test.system>
Nuclear receptor ROR-gamma (Homo sapiens)

>  <IC50, µM>
0.95

$$$$
>  <sample.smiles>
O=C(O)c1ccc(-n2cc(C(=O)c3ccc(Cl)cc3)c3ccccc32)s1

>  <target.or.test.system>
Nuclear receptor ROR-gamma (Homo sapiens)

>  <IC50, µM>
39.9

$$$$
>  <sample.smiles>
Cc1cccc(C(=O)c2cn(-c3ccc(C(=O)O)s3)c3ccccc23)c1

>  <target.or.test.system>
Nuclear receptor ROR-gamma (Homo sapiens)

>  <IC50, µM>
149

$$$$

Output IC50 of O=C(O)c1ccc(-n2cc(C(=O)c3ccccc3)c3ccccc32)s1
19.3

Output IC50 of Cc1ccc(C(=O)c2cn(-c3ccc(C(=O)O)s3)c3ccccc23)cc1
79.9

Output IC50 of O=C(O)c1ccc(-n2cc(C(=O)c3c(Cl)cccc3Cl)c3ccccc32)cc1
0.009

----------
# target.or.test.system: Nuclear receptor ROR-gamma (Homo sapiens)
# Sequence (P51449 whole entry): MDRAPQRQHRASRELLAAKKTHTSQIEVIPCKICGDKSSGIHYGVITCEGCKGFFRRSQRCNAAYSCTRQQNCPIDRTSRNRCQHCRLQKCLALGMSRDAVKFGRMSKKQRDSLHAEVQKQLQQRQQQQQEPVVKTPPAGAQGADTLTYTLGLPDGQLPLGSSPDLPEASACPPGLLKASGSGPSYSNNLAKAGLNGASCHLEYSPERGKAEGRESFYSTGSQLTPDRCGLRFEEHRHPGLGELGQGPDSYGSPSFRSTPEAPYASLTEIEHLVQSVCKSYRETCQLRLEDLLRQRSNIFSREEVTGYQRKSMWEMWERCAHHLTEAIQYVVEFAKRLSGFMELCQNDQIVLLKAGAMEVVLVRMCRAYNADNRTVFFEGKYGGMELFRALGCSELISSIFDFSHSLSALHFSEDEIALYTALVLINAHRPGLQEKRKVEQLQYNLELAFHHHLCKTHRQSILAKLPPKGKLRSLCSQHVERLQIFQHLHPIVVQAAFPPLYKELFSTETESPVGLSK
Item-by-item account of Ki
The response must be a number in µM with no trailing unit.

>  <sample.smiles>
O=C(O)c1ccc(-n2cc(C(=O)c3ccccc3Cl)c3ccccc32)s1

>  <target.or.test.system>
Nuclear receptor ROR-gamma (Homo sapiens)

>  <reading>
7.2

$$$$
>  <sample.smiles>
Cc1cccc(C(=O)c2cn(-c3ccc(C(=O)O)s3)c3ccccc23)c1

>  <target.or.test.system>
Nuclear receptor ROR-gamma (Homo sapiens)

>  <reading>
79.8

$$$$
>  <sample.smiles>
Cc1ccc(C(=O)c2cn(-c3ccc(C(=O)O)s3)c3ccccc23)cc1

>  <target.or.test.system>
Nuclear receptor ROR-gamma (Homo sapiens)

>  <reading>
42.7

$$$$

Output Ki of Cc1cc(-n2cc(C(=O)c3c(Cl)cccc3Cl)c3ccccc32)sc1C(=O)O
1.7
